tested on: c-HaRas protein; assay: Ras GTPase stimulating activity: hydrolysis of [gamma-32P] GTP bound to c-HaRas protein, by GST fusion NF1 mutants; format: biochemical, murine; conditions: 20 ug/ml NF1 mutants; 25° C., 20 minutes
Listing of recorded Activation (fold), Ras GTPase activation by entry.
readout.type: Activation (fold), Ras GTPase activation

{"molecule": "NF 80: NF1 fragment, residues 1452-1531 (protein, UniProt P21359 1452-1531, looked up, fragment) HVLFTKEEHMRPFNDFVKSNFDAARRFFLDIASDCPTSDAVNHSLSFISDGNVLALHRLLWNNQEKIGQYLSSNRDHKAV", "value.units": "fold", "reported.result": 0}
{"molecule": "NF 326: NF1 fragment, residues 1206-1531 (protein, UniProt P21359 1206-1531, looked up, fragment) ERLVELVTMMGDQGELPIAMALANVVPCSQWDELARVLVTLFDSRHLLYQLLWNMFSKEVELADSMQTLFRGNSLASKIMTFCFKVYGATYLQKLLDPLLRIVITSSDWQHVSFEVDPTRLEPSESLEENQRNLLQMTEKFFHAIISSSSEFPPQLRSVCHCLYQATCHSLLNKATVKEKKENKKSVVSQRFPQNSIGAVGSAMFLRFINPAIVSPYEAGILDKKPPPRIERGLKLMSKILQSIANHVLFTKEEHMRPFNDFVKSNFDAARRFFLDIASDCPTSDAVNHSLSFISDGNVLALHRLLWNNQEKIGQYLSSNRDHKAV", "value.units": "fold", "reported.result": 11}
